This collection of values is drawn from the Kinase Knowledgebase extract (Sharma et al. 2016).

Measured IC50 by item
TARGET OR TEST SYSTEM: PIK3CA (human) (UniProt P42336)
Sequence (P42336 whole entry, looked up): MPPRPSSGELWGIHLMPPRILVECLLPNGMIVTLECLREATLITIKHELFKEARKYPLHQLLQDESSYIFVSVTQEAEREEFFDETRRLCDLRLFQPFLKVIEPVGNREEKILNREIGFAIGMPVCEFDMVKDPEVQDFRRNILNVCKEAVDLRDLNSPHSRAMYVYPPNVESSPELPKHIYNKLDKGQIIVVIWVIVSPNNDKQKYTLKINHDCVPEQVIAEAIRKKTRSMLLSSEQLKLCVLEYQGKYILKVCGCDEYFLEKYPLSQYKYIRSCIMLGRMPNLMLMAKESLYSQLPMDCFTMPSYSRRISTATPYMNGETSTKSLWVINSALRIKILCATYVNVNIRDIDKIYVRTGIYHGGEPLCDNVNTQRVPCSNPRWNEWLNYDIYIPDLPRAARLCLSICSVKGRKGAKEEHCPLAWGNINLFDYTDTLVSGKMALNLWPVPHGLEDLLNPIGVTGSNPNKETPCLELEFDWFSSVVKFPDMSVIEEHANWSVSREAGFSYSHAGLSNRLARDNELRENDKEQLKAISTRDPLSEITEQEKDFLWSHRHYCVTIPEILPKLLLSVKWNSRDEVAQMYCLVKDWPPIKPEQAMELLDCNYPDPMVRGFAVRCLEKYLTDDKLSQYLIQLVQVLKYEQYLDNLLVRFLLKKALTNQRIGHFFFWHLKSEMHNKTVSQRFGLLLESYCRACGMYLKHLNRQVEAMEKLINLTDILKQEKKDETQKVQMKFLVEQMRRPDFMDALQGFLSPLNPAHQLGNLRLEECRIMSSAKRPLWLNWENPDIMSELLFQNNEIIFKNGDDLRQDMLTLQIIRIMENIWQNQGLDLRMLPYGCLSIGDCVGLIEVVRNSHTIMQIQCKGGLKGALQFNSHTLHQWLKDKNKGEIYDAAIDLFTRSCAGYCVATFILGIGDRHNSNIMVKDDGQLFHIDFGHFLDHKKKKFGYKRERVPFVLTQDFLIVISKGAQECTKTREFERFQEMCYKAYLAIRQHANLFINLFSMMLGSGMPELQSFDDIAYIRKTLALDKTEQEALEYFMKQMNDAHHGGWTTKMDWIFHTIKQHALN
PROCEDURE DETAILS: Assessment of PIK3CA Kinase Activity
Write it as a number; the unit nM goes unstated.

Cc1ncnc(N2CCC(=O)CC2)c1C#Cc1ccc(N)nc1
104
CCNC(=O)Nc1ccc(-c2nc(N3CCO[C@H](C)C3)c3cnn(C4CCN(C(=O)OCC)CC4)c3n2)cc1
4360
NC(=O)[C@@H]1CCCCN1C1CCN(c2nc(N3CCOCC3)cc(-n3c(C(F)F)nc4ccccc43)n2)CC1
600

Assay PIK3CA (human) (UniProt P42336), sample "CCOC(=O)N1CCC(n2ncc3c(N4CCO[C@@H](C)C4)nc(-c4ccc(NC(=O)NCCF)cc4)nc32)CC1" , IC50 read: 521

Assay PIK3CA (human) (UniProt P42336), sample "NCC(=O)N1CCN(c2cc(N3CCOCC3)nc(-n3c(C(F)F)nc4ccccc43)n2)CC1" , IC50 read: 100

Assay PIK3CA (human) (UniProt P42336), sample "CC(C)(C)COC(=O)NCc1ccc(NC(=O)Nc2ccc(-c3nc(CS(C)(=O)=O)cc(N4CC5CCC(C4)O5)n3)cc2)cc1" , IC50 read: 1930

Assay PIK3CA (human) (UniProt P42336), sample "O=C(Nc1ccc(-c2nc(N3CCOCC3)nc(N3CCOCC3)n2)cc1)NC1CCNCC1" , IC50 read: 1520

Assay PIK3CA (human) (UniProt P42336), sample "NCC(=O)N1CCC(c2cc(N3CCOCC3)nc(-n3c(C(F)F)nc4ccccc43)n2)CC1" , IC50 read: 300
